# protocol: Brain and prostate distribution after single IV in rats
# measurement context: rat, in vivo, 1 mg/kg, plasma, 120 min, single IV 1 mg/kg
attribute measured: concentration at 120 min (ng/mL)

| compound | uom | recorded result |
| --- | --- | --- |
| CNC(=O)c1ccc(N2C(=S)N(c3cnc(C#N)c(C(F)(F)F)c3)C(=O)C23CCC3)cc1F [ARN-509] | ng/mL | 153 |

---

# protocol: Brain and prostate distribution after single IV in rats
# measurement context: rat, in vivo, 1 mg/kg, Prostate, 120 min, single IV 1 mg/kg

| test smiles | concentration at 120 min |
| --- | --- |
| CNC(=O)c1ccc(N2C(=S)N(c3cnc(C#N)c(C(F)(F)F)c3)C(=O)C23CCC3)cc1F | 482 ng/g |
